Hey, just so you know, these numbers are from patent US7118895B2.

# System: Crude diglycosidase
# procedure.summary: Examination of pH in the conversion into isoflavone aglycons by diglycosidase using soybean materials
# Assay type: biochemical, Penicillium multicolor IAM7153
# conditions.used: pH7.2; heat treatment of enzyme: no; reaction time 6 h
recorded.endpoint: Decomposition efficiency of daidzin family in soymilk

The reported value for O=c1c(-c2ccc(O)cc2)coc2cc(O[C@@H]3O[C@H](CO)[C@@H](O)[C@H](O)[C@H]3O)ccc12 [daidzin] in terms of Decomposition efficiency of daidzin family in soymilk is not detected

The reported value for O=C(O)CC(=O)OC[C@H]1O[C@@H](Oc2ccc3c(=O)c(-c4ccc(O)cc4)coc3c2)[C@H](O)[C@@H](O)[C@@H]1O [malonyldaidzin, 6″-O-malonyldaidzin] in terms of Decomposition efficiency of daidzin family in soymilk is 48.2%

The reported value for O=c1c(-c2ccc(O)cc2)coc2cc(O)ccc12 [daidzein] in terms of Decomposition efficiency of daidzin family in soymilk is 51.8%

The reported value for CC(=O)OC[C@H]1O[C@@H](Oc2ccc3c(=O)c(-c4ccc(O)cc4)coc3c2)[C@H](O)[C@@H](O)[C@@H]1O [acetyldaidzin, 6″-O-acetyldaidzin] in terms of Decomposition efficiency of daidzin family in soymilk is not detected

###

# System: Crude diglycosidase
# procedure.summary: Examination of substrate concentration in the conversion into isoflavone aglycons by diglycosidase using soybean materials;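 further: percent of the isoflavone family total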
# Type: biochemical, Penicillium multicolor IAM7153
# conditions.used: roasted soy flour, substrate concentration 5%, heat treatment of enzyme no, reaction time 3 h
recorded.endpoint: Decomposition efficiency: ratio of each glycoside/aglycon within its isoflavone family (%)
// return numeric value only (unit: %, not printed)

Record "CC(=O)OC[C@H]1O[C@@H](Oc2ccc3c(=O)c(-c4ccc(O)cc4)coc3c2)[C@H](O)[C@@H](O)[C@@H]1O" ; system Crude diglycosidase; Decomposition efficiency: ratio of each glycoside/aglycon within its isoflavone family = 12.5

Record "COc1cc2c(=O)c(-c3ccc(O)cc3)coc2cc1O[C@@H]1O[C@H](COC(C)=O)[C@@H](O)[C@H](O)[C@H]1O" ; system Crude diglycosidase; Decomposition efficiency: ratio of each glycoside/aglycon within its isoflavone family = 7.2

Record "CC(=O)OC[C@H]1O[C@@H](Oc2cc(O)c3c(=O)c(-c4ccc(O)cc4)coc3c2)[C@H](O)[C@@H](O)[C@@H]1O" ; system Crude diglycosidase; Decomposition efficiency: ratio of each glycoside/aglycon within its isoflavone family = 15.2

Continue with the next molecule.
Record "COc1cc2c(=O)c(-c3ccc(O)cc3)coc2cc1O" ; system Crude diglycosidase; Decomposition efficiency: ratio of each glycoside/aglycon within its isoflavone family = 92.8

###

# Test system: Crude diglycosidase
# procedure.summary: Examination of substrate concentration in the conversion into isoflavone aglycons by diglycosidase using soybean materials;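 further: percent of the isoflavone family total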
# Format: biochemical, Penicillium multicolor IAM7153
# conditions.used: soymilk, substrate concentration 30%, heat treatment of enzyme yes, reaction time 6 h
Assign met to entries whose Decomposition efficiency: ratio of each glycoside/aglycon within its isoflavone family meets or exceeds 40%; assign not met to the rest.

Please review the following examples before continuing.
Dear colleague, could you confirm whether "COc1cc2c(=O)c(-c3ccc(O)cc3)coc2cc1O[C@@H]1O[C@H](CO)[C@@H](O)[C@H](O)[C@H]1O" has Decomposition efficiency: ratio of each glycoside/aglycon within its isoflavone family at or above 40%?
met

Dear colleague, could you confirm whether "O=c1c(-c2ccc(O)cc2)coc2cc(O[C@@H]3O[C@H](CO)[C@@H](O)[C@H](O)[C@H]3O)cc(O)c12" has Decomposition efficiency: ratio of each glycoside/aglycon within its isoflavone family at or above 40%?
not met

Dear colleague, could you confirm whether "COc1cc2c(=O)c(-c3ccc(O)cc3)coc2cc1O" has Decomposition efficiency: ratio of each glycoside/aglycon within its isoflavone family at or above 40%?
not met

Dear colleague, could you confirm whether "O=C(O)CC(=O)OC[C@H]1O[C@@H](Oc2cc(O)c3c(=O)c(-c4ccc(O)cc4)coc3c2)[C@H](O)[C@@H](O)[C@@H]1O" has Decomposition efficiency: ratio of each glycoside/aglycon within its isoflavone family at or above 40%?
met

Dear colleague, could you confirm whether "CC(=O)OC[C@H]1O[C@@H](Oc2cc(O)c3c(=O)c(-c4ccc(O)cc4)coc3c2)[C@H](O)[C@@H](O)[C@@H]1O" has Decomposition efficiency: ratio of each glycoside/aglycon within its isoflavone family at or above 40%?
not met

Dear colleague, could you confirm whether "COc1cc2c(=O)c(-c3ccc(O)cc3)coc2cc1O[C@@H]1O[C@H](COC(=O)CC(=O)O)[C@@H](O)[C@H](O)[C@H]1O" has Decomposition efficiency: ratio of each glycoside/aglycon within its isoflavone family at or above 40%?
not met

Next up:
Dear colleague, could you confirm whether "O=C(O)CC(=O)OC[C@H]1O[C@@H](Oc2ccc3c(=O)c(-c4ccc(O)cc4)coc3c2)[C@H](O)[C@@H](O)[C@@H]1O" has Decomposition efficiency: ratio of each glycoside/aglycon within its isoflavone family at or above 40%?
met

###

Below: a set of entries, each annotated with reported aglycon.
# System: β-Glucosidase derived from almond
# procedure.summary: Reactivity toward various isoflavone glycosides (HPLC)
# Assay type: biochemical
# Parameters: unit not given here
# conditions.used: Reaction time 6 h; 55 °C, pH 4.0
Just the number, please, no unit after it.

See these solved cases before continuing.
The reported value for CC(=O)OC[C@H]1O[C@@H](Oc2ccc3c(=O)c(-c4ccc(O)cc4)coc3c2)[C@H](O)[C@@H](O)[C@@H]1O [acetyldaidzin, 6″-O-acetyldaidzin] in terms of aglycon is 0.6

The reported value for COc1cc2c(=O)c(-c3ccc(O)cc3)coc2cc1O[C@@H]1O[C@H](COC(C)=O)[C@@H](O)[C@H](O)[C@H]1O [acetylglycitin, 6″-O-acetylglycitin] in terms of aglycon is 0

The reported value for CC(=O)OC[C@H]1O[C@@H](Oc2cc(O)c3c(=O)c(-c4ccc(O)cc4)coc3c2)[C@H](O)[C@@H](O)[C@@H]1O [acetylgenistin, 6″-O-acetylgenistin] in terms of aglycon is 0

The reported value for COc1cc2c(=O)c(-c3ccc(O)cc3)coc2cc1O[C@@H]1O[C@H](CO)[C@@H](O)[C@H](O)[C@H]1O [glycitin] in terms of aglycon is 1.9

The reported value for O=C(O)CC(=O)OC[C@H]1O[C@@H](Oc2cc(O)c3c(=O)c(-c4ccc(O)cc4)coc3c2)[C@H](O)[C@@H](O)[C@@H]1O [malonylgenistin, 6″-O-malonylgenistin] in terms of aglycon is 0

Continue with the next molecule.
The reported value for O=C(O)CC(=O)OC[C@H]1O[C@@H](Oc2ccc3c(=O)c(-c4ccc(O)cc4)coc3c2)[C@H](O)[C@@H](O)[C@@H]1O [malonyldaidzin, 6″-O-malonyldaidzin] in terms of aglycon is 0

###

# Tested on: Crude diglycosidase
# procedure.summary: Examination of substrate concentration in the conversion into isoflavone aglycons by diglycosidase using soybean materials;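 further: percent of the isoflavone family total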
# Assay type: biochemical, Penicillium multicolor IAM7153
# conditions.used: soymilk, substrate concentration 10%, heat treatment of enzyme no, reaction time 0 h
// assign YES if Decomposition efficiency: ratio of each glycoside/aglycon within its isoflavone family falls strictly below 40%, else NO (ties count as NO)

# strict comparison: is reported Decomposition efficiency: ratio of each glycoside/aglycon within its isoflavone family < 40%? input = COc1cc2c(=O)c(-c3ccc(O)cc3)coc2cc1O[C@@H]1O[C@H](CO)[C@@H](O)[C@H](O)[C@H]1O [glycitin]
NO

Further cases:
# strict comparison: is reported Decomposition efficiency: ratio of each glycoside/aglycon within its isoflavone family < 40%? input = O=c1c(-c2ccc(O)cc2)coc2cc(O[C@@H]3O[C@H](CO)[C@@H](O)[C@H](O)[C@H]3O)cc(O)c12 [genistin]
YES

# strict comparison: is reported Decomposition efficiency: ratio of each glycoside/aglycon within its isoflavone family < 40%? input = CC(=O)OC[C@H]1O[C@@H](Oc2cc(O)c3c(=O)c(-c4ccc(O)cc4)coc3c2)[C@H](O)[C@@H](O)[C@@H]1O [acetyl-genistin]
YES

# strict comparison: is reported Decomposition efficiency: ratio of each glycoside/aglycon within its isoflavone family < 40%? input = COc1cc2c(=O)c(-c3ccc(O)cc3)coc2cc1O [glycitein]
YES

# strict comparison: is reported Decomposition efficiency: ratio of each glycoside/aglycon within its isoflavone family < 40%? input = O=C(O)CC(=O)OC[C@H]1O[C@@H](Oc2ccc3c(=O)c(-c4ccc(O)cc4)coc3c2)[C@H](O)[C@@H](O)[C@@H]1O [malonyldaidzin, 6″-O-malonyldaidzin]
NO

# strict comparison: is reported Decomposition efficiency: ratio of each glycoside/aglycon within its isoflavone family < 40%? input = O=c1c(-c2ccc(O)cc2)coc2cc(O[C@@H]3O[C@H](CO)[C@@H](O)[C@H](O)[C@H]3O)ccc12 [daidzin]
YES

# strict comparison: is reported Decomposition efficiency: ratio of each glycoside/aglycon within its isoflavone family < 40%? input = O=C(O)CC(=O)OC[C@H]1O[C@@H](Oc2cc(O)c3c(=O)c(-c4ccc(O)cc4)coc3c2)[C@H](O)[C@@H](O)[C@@H]1O [malonylgenistin, 6″-O-malonylgenistin]
NO
